- study_target: human CAIX on CHO cells (CHO-hCAIX) (human, UniProt Q16790 38-459)
- assay_method_text: flow cytometry on CHO-hCAIX cells, anti-human IgG-Fc PE
attribute_measured: EC50 (nM)
Write the value in nM as a bare number.

* H-YE-23 (Fc fusion, also called CAIX nanobody H-YE-23; WYE-23; not shown: human IgG1 Fc segment) QVQLQESGGGLVQPGGSLRLSCAASGNSANIFSFASVAWYRQAPGKQRELVAVITSAGGTKYSDSVKGRFTISRDNAKNTILLQMNSLKPEDTAVYYCNVDYLQDYWGQGTQVTVSS | 3.55
* H-YE-26 (Fc fusion, also called CAIX nanobody H-YE-26; not shown: human IgG1 Fc segment) QVQLQESGGGLVQAGGSLRLSCAASGNSVNIFRFATVAWYRQAPGEQRELVAVITSAGGTKYSDSVKGRFTISRDNAKNTVLLQMNSLKPEDTAVYYCNADFLQDYWGQGTQVTVSS | 4.46
* H-YE-03 (Fc fusion, also called CAIX nanobody H-YE-03; not shown: human IgG1 Fc segment) QVQLQESGGGLVQPGGSLRLSCTASTSSFNFQTMGWYRQAPGKQRELVATITSRAITNYADSVKGRFTISRDNAAKTVSLQMNSLKPEDTAVYYCNAAWIGDYWGQGTQVTVSA | 7.34

From here, focus on the item given below.
Lookup: EC50 lookup needed for H-YE-37 (Fc fusion, also called CAIX nanobody H-YE-37; not shown: human IgG1 Fc segment) QVQLQESGGGLMHDGDSLRLSCAASGRTFSTYAMGWFRQAPGKEREFVAAISWSGGSTYYADSVKGRFTISRDNAKNTVYLQMNSLKPEDTAVYYCAAEGIYNSGSSYHDANGYDYWGQGTQVTVSS , thanks.
Found: 6.07
